Tgt: human GPRC5D (human, UniProt Q9NZD1 1-345)
Sequence (Q9NZD1 whole entry): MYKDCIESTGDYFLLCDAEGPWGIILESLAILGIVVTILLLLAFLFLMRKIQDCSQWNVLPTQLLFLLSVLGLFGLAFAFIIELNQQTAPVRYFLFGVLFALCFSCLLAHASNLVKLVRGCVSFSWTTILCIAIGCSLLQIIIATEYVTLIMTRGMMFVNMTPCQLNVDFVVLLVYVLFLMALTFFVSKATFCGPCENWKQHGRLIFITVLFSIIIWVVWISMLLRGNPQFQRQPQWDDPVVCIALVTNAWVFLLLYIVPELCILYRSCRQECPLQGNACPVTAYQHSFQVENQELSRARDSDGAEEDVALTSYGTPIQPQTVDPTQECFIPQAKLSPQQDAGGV
Protocol summary: cell-based or functional assay
Readout name: CAR-J2 EC50 (PGLALA-CAR-J activation, L363 target cells) (ng/mL)

INSERT INTO results (binder, measurement_unit, readout_value) VALUES
  ('P1AE5730 (antibody, V domains shown) VH: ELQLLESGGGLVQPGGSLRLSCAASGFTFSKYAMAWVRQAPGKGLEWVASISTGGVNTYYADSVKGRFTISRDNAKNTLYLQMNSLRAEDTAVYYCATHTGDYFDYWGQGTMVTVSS VL: DIQMTQSPSSLSASVGDRVTITCRASQSVSISGINLMNWYQQKPGKQPKLLIYHASILASGVPSRFSGSGSGTDFTLTISSLQPEDFATYYCQQTRESPLTFGQGTRLEIK', 'ng/mL', 3.5),
  ('P1AE5708 (antibody, V domains shown) VH: EVQLLESGGGLVQPGGSLRLSCAASGFTFSKYAMAWVRQAPGKGLEWVASISTGGVNTYYRDSVKARFTISRDNSKNTLYLQMNSLRAEDTAVYYCATHTGDYFDYWGQGTMVTVSS VL: DIVMTQSPDSLAVSLGERATINCKSSQSVSISGINLMNWYQQKPGQQPKLLIYHASILASGVPDRFSGSGSGTDFTLTISSLQAEDVAVYYCQQTRESPLTFGQGTRLEIK', 'ng/mL', 456),
  ('P1AE5724 (antibody, V domains shown) VH: EVQLLESGGGLVQPGGSLRLSCAASGFTFSKYAMAWVRQAPGKGLEWVASISTGGVNTYYADSVKGRFTISRDNSKNTLYLQMNSLRAEDTAVYYCATHTGDYFDYWGQGTMVTVSS VL: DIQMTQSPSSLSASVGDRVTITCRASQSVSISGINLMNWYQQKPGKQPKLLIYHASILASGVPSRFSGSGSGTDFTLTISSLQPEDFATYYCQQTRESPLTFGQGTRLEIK', 'ng/mL', 3.6);

Where do these numbers come from? They come from patent US20210054094A1.
